system: L-1210 leukemia; experiment: Anti-tumor action to L-1210 leukemia; assay type: in vivo, BDF1 female mice; details: Mus musculus, L1210; oral, 500 mg/kg/day × 3 (1st, 5th, 9th day); read-out: L-1210 ILS
Assignment: determine reported ILS at 500 mg/kg/day for the given molecules.
Quick note: number first, unit second.

Challenge: State the recorded ILS at 500 mg/kg/day for this entry: CC[Si](CC)(CC)CCSCCNC(=O)n1cc(F)c(=O)[nH]c1=O [Example 2]
Response given: 96%

Challenge: What about this molecule? CC(C)[Si](C)(C)CCSCCCNC(=O)n1cc(F)c(=O)[nH]c1=O [Example 9]
Response given: 80%

Challenge: What about this molecule? CCCC[Si](C)(C)CCCSCCCNC(=O)n1cc(F)c(=O)[nH]c1=O [Example 15]
Response given: 62%

Challenge: What about this molecule? C[Si](CCSCCNC(=O)n1cc(F)c(=O)[nH]c1=O)(c1ccccc1)c1ccccc1 [Example 7]
Response given: 11%

Challenge: What about this molecule? C[Si](C)(C)CCCSCCNC(=O)n1cc(F)c(=O)[nH]c1=O [Example 1]
Response given: 98%

Challenge: What about this molecule? CC(C)[Si](C)(C)CCSCCNC(=O)n1cc(F)c(=O)[nH]c1=O [Example 5]
Response given: 106%

Challenge: What about this molecule? C[Si](C)(CCCSCCCNC(=O)n1cc(F)c(=O)[nH]c1=O)c1ccccc1 [Example 16]
Response given: 86%

###

Assignment: determine reported ILS at 250 mg/kg/day for the given compounds.
Tested on: L-1210 leukemia
Assay: Anti-tumor action to L-1210 leukemia
Assay type: in vivo, BDF1 female mice
Settings: Mus musculus, L1210; oral, 250 mg/kg/day × 3 (1st, 5th, 9th day); read-out: L-1210 Judgement
Experimental: L-1210 leukemia cell (1×10^5 cells) was transplanted in a abdominal cavity of BDF1 female mice (20-21 g, age of about 5 weeks), and each of testing compounds was orally dosed in 250 mg/kg or 500 mg/kg at 1st, 5th and 9th day after the transplantation to check days of life of the mice. [formula]

Challenge: State the recorded ILS at 250 mg/kg/day for this entry: C[Si](C)(C)CCSCCCNC(=O)n1cc(F)c(=O)[nH]c1=O [Example 8]
Response given: 25 to 50%

Challenge: What about this compound? CC(C)(C)[Si](C)(C)CCCSCCNC(=O)n1cc(F)c(=O)[nH]c1=O [Example 13]
Response given: < 25%

Challenge: What about this compound? CCCC[Si](C)(C)CCCSCCCNC(=O)n1cc(F)c(=O)[nH]c1=O [Example 15]
Response given: 25 to 50%

Challenge: What about this compound? CC(C)[Si](C)(C)CCCSCCCNC(=O)n1cc(F)c(=O)[nH]c1=O [Example 11]
Response given: < 25%

Challenge: What about this compound? CC(C)(C)[Si](C)(C)CCCSCCCNC(=O)n1cc(F)c(=O)[nH]c1=O [Example 14]
Response given: < 25%

Challenge: What about this compound? C[Si](C)(CCSCCNC(=O)n1cc(F)c(=O)[nH]c1=O)c1ccccc1 [Example 3]
Response given: 25 to 50%

Challenge: What about this compound? CC(C)[Si](C)(C)CCSCCNC(=O)n1cc(F)c(=O)[nH]c1=O [Example 5]
Response given: 25 to 50%

Challenge: What about this compound? C[Si](CCSCCNC(=O)n1cc(F)c(=O)[nH]c1=O)(c1ccccc1)c1ccccc1 [Example 7]
Response given: < 25%

Challenge: What about this compound? CC(C)[Si](C)(C)CCSCCCNC(=O)n1cc(F)c(=O)[nH]c1=O [Example 9]
Response given: 25 to 50%

Challenge: What about this compound? CCCC[Si](C)(C)CCSCCNC(=O)n1cc(F)c(=O)[nH]c1=O [Example 6]
Response given: 25 to 50%

Challenge: What about this compound? C[Si](C)(C)CCCSCCCNC(=O)n1cc(F)c(=O)[nH]c1=O [Example 10]
Response given: 25 to 50%
